Biological target: T1, human GIP receptor (human, UniProt P48546 22-466)
T1 sequence (looked up): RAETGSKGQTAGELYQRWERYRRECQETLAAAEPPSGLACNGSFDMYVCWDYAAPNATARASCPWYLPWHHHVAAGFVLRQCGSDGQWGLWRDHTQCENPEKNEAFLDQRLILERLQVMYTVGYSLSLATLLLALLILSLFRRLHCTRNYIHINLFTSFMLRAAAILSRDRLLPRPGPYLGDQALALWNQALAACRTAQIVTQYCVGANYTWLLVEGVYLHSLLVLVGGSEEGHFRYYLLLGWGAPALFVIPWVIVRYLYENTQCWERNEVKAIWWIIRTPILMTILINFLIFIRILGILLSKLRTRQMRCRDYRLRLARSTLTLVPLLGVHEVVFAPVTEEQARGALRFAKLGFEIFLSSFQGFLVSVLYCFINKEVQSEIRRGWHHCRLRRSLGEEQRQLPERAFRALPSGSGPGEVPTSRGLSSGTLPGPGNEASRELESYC
Assay: cell-based or functional assay
Starred links: 1 amine or outer side, 2 acyl side, 3 side chain; linkers in the order of their positions; H or OH if unused. Non-standard residues stand in square brackets, D forms with d. Groups on a side chain read outwards from the residue. No end group written: not given here. *: point of attachment. C20 diacid = O=C(O)CCCCCCCCCCCCCCCCCCC(=O)*; C18 diacid = O=C(O)CCCCCCCCCCCCCCCCC(=O)*; γGlu = O=C(O)[C@H](CCC(=O)[*:2])N[*:1]; εLys = N[C@@H](CCCCN[*:1])C(=O)[*:2]; AEEA = NCCOCCOCC(=O)O; Aib = CC(C)(N)C(=O)O
The label yes (1) is reserved for EC50 hGIPR 0.5% hP (CreLuc) strictly under 0.2 nM; no (0) covers values equal to or above it.

binder	label class
YXEGTFTSDYSIXLEKQAQXAFVEWLIKGGPSSGASLRHYYNWLTRQRY (Aib at 2, 13, 20; K28 side chain acylated with C18DA-gGlu-gGlu-gGlu-gGlu-gGlu-OEG-OEG; C-terminal amide (NH2)) [Compound 261]	yes (1)
YXEGTFTSDYSIXLEKQAQXAFVEWLIKGGPSEGASLRHYYNWLTRQRY (Aib at 2, 13, 20; K28 side chain acylated with C18DA-gGlu-gGlu-gGlu-gGlu-gGlu; C-terminal amide (NH2)) [Compound 292]	yes (1)
Y[Aib]EGTFTSDYSI[Aib]LEKQAQ[Aib]EFVEWLIK([AEEA-AEEA-γGlu-C18 diacid])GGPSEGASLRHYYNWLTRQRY-NH2 (also: TFA salt) [Compound 282]	yes (1)
Y[Aib]EGTFTSDYSI[Aib]LEKQAQ[Aib]AFVEWLIKGGPSEGASLRHYYNWLTRQRY-NH2 (not fully specified (residue 28); also: TFA salt) [Compound 296]	no (0)
Y[Aib]EGTFTSDYSI[Aib]LEKQAQ[Aib]EFVEWLIK([AEEA-AEEA-γGlu-γGlu-γGlu-C18 diacid])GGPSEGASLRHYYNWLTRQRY-NH2 (also: TFA salt) [Compound 284]	no (0)
Y[Aib]EGTFTSDYSI[Aib]LEKQAQ[Aib]AFIEWLIK([γGlu-γGlu-γGlu-γGlu-C20 diacid])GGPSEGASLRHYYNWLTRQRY-NH2 (also: TFA salt) [Compound 283]	no (0)
Y[Aib]EGTFTSDYSI[Aib]LEKQAQ[Aib]AFVEWLIK([εLys-γGlu-Glu-γGlu-γGlu-γGlu-C20 diacid])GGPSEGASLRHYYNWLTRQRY-NH2 (also: TFA salt) [Compound 290]	no (0)
Y[Aib]EGTFTSDYSI[Aib]LEKQAQ[Aib]EFVEWLIK([AEEA-γGlu-γGlu-γGlu-C18 diacid])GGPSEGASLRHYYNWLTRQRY-NH2 (also: TFA salt) [Compound 274]	no (0)
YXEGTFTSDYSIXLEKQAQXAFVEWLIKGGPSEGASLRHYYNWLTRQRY (Aib at 2, 13, 20; K28 side chain acylated with C20DA-gGlu-gGlu-gGlu-gGlu-gGlu-AHX; C-terminal amide (NH2)) [Compound 301]	no (0)
Y[Aib]EGTFTSDYSI[Aib]LEKQAQ[Aib]AFVQWLIK([εLys-γGlu-γGlu-γGlu-γGlu-γGlu-C18 diacid])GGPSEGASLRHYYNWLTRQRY-NH2 (also: TFA salt) [Compound 267]	yes (1)
